System: amyloid precursor protein (APP) proteolysis
Protocol summary: Repressor Release Assay (RRA)
Format: cell-based
Condition: Conc 3 μg/mL; luciferase activity over diluent control
Quantity measured: APPI Fold Increase (fold)
Give bare numbers, in fold.

# example entries with known answers
Compound	APPI Fold Increase / fold
O=S(=O)(NC(CO)C1CCCCC1)c1ccc(Br)s1 (centres unmarked) [Example 13]	4.02
CC[C@H](C)[C@@H](CO)NS(=O)(=O)c1cc(Cl)sc1Cl [Example 5]	1.1
O=S(=O)(NC1(CO)CCCC1)c1ccc(Br)s1 [Example 109]	1.8

Respectfully, I request APPI Fold Increase for each entry included below.
1. CC[C@@H](C)[C@@H](CO)NS(=O)(=O)c1ccc(Br)s1 [Example 17]
2. CCC(C)C(NS(=O)(=O)c1ccc(Cl)s1)C(O)CC (mixture of isomers) [Example 129]
3. C=CCC(O)C(NS(=O)(=O)c1ccc(Cl)s1)C(C)CC (mixture of isomers) [Example 128]
4. CC(C)CC(CO)NS(=O)(=O)c1ccc(Br)s1 (centres unmarked) [Example 105]
5. CC(C)CC(CO)NS(=O)(=O)c1ccc(Cl)s1 (centres unmarked) [Example 90]

Marked response:
1. 3.47
2. 1.61
3. 2.48
4. 2.23
5. 1.74

Value source: patent US6878742B2
